Values from paper PMC10397247

study_target: T1, 4H3049-AA
T1 chain: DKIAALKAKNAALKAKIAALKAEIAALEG
test_description: two-hybrid library CCmax;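 also: natural log of median RNA to DNA barcode read ratio; higher means stronger binding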
condition: mean of both orientations
readout_type: interaction score
Keep the answer to the number alone.

binder	interaction score
DKIAALKAEIAALEAKIAALKAENAALKG [4H2604-AA]	-0.492
DKIAALKAENAALKAEIAALEAKNAALKG [4H2760-AA]	1.62
DKIAALKAEIAALEAKNAALKAKIAALKG [4H2622-AA]	0.212
DKIAALKAEIAALEAENAALEAENAALKG [4H2580-AA]	-0.107

Asked: Entry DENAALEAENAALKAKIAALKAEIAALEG [4H1257-AA] has what interaction score?
Given back: -0.309

Asked: Entry DKIAALKAKIAALKAENAALEAKNAALEG [4H2903-AA] has what interaction score?
Given back: -1.81

Asked: Entry DKIAALKAENAALEAEIAALKAENAALEG [4H2699-AA] has what interaction score?
Given back: 0.526

Asked: Entry DEIAALEAENAALKAKIAALKAENAALEG [4H235-AA] has what interaction score?
Given back: -0.98

Asked: Entry DKIAALKAKNAALEAEIAALEAENAALEG [4H2947-AA] has what interaction score?
Given back: -0.853
